Target: JAK1 kinase activity on STAT3 in TF1 cells (Homo sapiens)
Sequence (P23458 whole entry): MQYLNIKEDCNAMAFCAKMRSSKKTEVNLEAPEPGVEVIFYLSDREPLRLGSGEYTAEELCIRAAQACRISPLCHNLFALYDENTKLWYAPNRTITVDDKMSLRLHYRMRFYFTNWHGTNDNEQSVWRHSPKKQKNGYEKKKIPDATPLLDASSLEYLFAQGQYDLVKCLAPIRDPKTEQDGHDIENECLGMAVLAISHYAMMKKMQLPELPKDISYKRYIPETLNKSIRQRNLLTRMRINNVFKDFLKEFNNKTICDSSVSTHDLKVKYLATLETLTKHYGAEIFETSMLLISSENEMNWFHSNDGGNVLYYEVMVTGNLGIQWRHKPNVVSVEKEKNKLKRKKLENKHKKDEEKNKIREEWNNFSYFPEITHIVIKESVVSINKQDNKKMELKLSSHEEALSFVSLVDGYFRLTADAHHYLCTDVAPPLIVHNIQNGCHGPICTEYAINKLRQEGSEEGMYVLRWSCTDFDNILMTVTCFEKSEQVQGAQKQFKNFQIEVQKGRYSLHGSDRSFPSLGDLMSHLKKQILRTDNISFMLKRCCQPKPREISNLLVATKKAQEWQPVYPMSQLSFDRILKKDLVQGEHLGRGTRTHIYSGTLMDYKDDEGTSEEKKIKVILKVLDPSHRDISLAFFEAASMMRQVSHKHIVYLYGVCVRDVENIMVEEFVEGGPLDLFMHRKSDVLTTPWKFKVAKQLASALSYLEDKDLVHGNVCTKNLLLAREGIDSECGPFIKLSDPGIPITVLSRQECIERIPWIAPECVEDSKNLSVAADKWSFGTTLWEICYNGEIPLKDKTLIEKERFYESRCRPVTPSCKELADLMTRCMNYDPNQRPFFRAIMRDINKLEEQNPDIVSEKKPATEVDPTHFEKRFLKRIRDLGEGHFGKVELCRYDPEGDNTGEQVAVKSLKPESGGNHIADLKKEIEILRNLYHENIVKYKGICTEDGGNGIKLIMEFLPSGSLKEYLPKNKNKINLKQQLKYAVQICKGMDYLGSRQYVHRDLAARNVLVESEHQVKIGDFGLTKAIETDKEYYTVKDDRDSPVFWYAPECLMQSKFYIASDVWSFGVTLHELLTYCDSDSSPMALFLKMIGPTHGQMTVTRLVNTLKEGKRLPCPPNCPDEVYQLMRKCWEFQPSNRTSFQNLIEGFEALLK
Assay: pSTAT3 cell assay (MSD; TF1 cells, 30 ng/mL IL-6 stimulation)
Details: 30 ng/mL IL-6, 15 minutes
pIC50: −log10 of the molar value. Counter-ions that a name gives are not always drawn.
Each entry below carries its reported pIC50.

MOLECULE: C[C@@H]1CN(c2nc(-c3cnn(C45CC(C#N)(C4)C5)c3)cn3ncc(F)c23)C(=O)[C@]1(C#N)C1CC1
STUDY SYSTEM: JAK1 kinase activity on STAT3 in TF1 cells (Homo sapiens)
pIC50: 5.30 to 6.00
//
MOLECULE: Cc1ccc(-c2cc3c(N4C[C@@H](C)[C@@](C#N)(C5CC5)C4=O)ccnn3c2)cn1
STUDY SYSTEM: JAK1 kinase activity on STAT3 in TF1 cells (Homo sapiens)
pIC50: 5.30 to 6.00
//
MOLECULE: CCc1ccc(-c2cc3c(N4C[C@@H](C)[C@@](C#N)(C5CC5)C4=O)ccnn3c2)cn1 [Example 174, trifluoroacetate]
STUDY SYSTEM: JAK1 kinase activity on STAT3 in TF1 cells (Homo sapiens)
pIC50: 5.30 to 6.00
//
MOLECULE: C[C@@H]1CN(c2ccnn3cc(-c4ccn(C)c(=O)c4)cc23)C(=O)[C@]1(C#N)C1CC1
STUDY SYSTEM: JAK1 kinase activity on STAT3 in TF1 cells (Homo sapiens)
pIC50: < 5.00
//
MOLECULE: C[C@@H]1CN(c2nc(-c3cnn(C)c3)cc3ncsc23)C(=O)[C@]1(C#N)C1CC1
STUDY SYSTEM: JAK1 kinase activity on STAT3 in TF1 cells (Homo sapiens)
pIC50: > 7.00
//
MOLECULE: C[C@@H]1CN(c2nc(-c3cnn([C@H]4C[C@@](C)(O)C4)c3)cn3ncc(F)c23)C(=O)[C@]1(C#N)C1CC1
STUDY SYSTEM: JAK1 kinase activity on STAT3 in TF1 cells (Homo sapiens)
pIC50: 6.00 to 7.00
//
MOLECULE: C[C@@H]1CN(c2cc(-c3cnn(C)c3)cc3ncsc23)C(=O)[C@]1(C#N)C1CC1
STUDY SYSTEM: JAK1 kinase activity on STAT3 in TF1 cells (Homo sapiens)
pIC50: 6.00 to 7.00

----------
Molecular target: human JAK1 kinase domain (JH1) (Homo sapiens, UniProt P23458)
Construct: recombinantly generated catalytic kinase (also known as JH1) domain of human JAK1, JAK2, JAK3 and TYK2
Sequence (P23458 875-1153 limits assumed): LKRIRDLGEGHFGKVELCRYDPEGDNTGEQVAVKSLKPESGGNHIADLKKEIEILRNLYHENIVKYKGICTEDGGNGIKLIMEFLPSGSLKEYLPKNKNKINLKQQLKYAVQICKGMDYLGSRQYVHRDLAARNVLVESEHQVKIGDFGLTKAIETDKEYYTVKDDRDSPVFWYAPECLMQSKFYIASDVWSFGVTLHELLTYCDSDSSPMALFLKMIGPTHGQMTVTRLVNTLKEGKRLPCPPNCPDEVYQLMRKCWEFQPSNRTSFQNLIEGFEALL
Experiment: JH1 biochemical assay for JAK1 (ADP-Glo kinase assay, recombinant JH1 catalytic domain, JAK3-342 peptide, 35 μM ATP)
Conditions: JH1 kinase domain, ADP-Glo
pIC50: −log10 of the molar value. Counter-ions that a name gives are not always drawn.

COMPOUND: C[C@@H]1C[C@@](C#N)(C2CC2)C(=O)N1c1ccnn2cc(-c3cnn(C)c3)cc12 [Example 17]
pIC50: 5.30 to 6.00

COMPOUND: CC[C@H]1CN(c2ccnn3cc(-c4cnn(C)c4)cc23)C(=O)[C@]1(C#N)C1CC1 [Example 24]
pIC50: 5.00 to 5.30

COMPOUND: C[C@@H]1CN(c2ccnn3cc(-c4ccc5nccn5c4)cc23)C(=O)[C@]1(C#N)C1CC1 [Example 88]
pIC50: > 7.00

COMPOUND: C[C@@H]1CN(c2ccnc3[nH]c(-c4cnn(C)c4)cc23)C(=O)[C@]1(C#N)C1CC1 [Example 1]
pIC50: > 7.00

COMPOUND: COc1cccnc1-c1cc2c(N3C[C@@H](C)[C@@](C#N)(C4CC4)C3=O)ccnn2c1 [Example 146, trifluoroacetate]
pIC50: 5.30 to 6.00
